Tested on: S. pneumoniae ATCC 700676
Assay: microdilution assay MIC, S. pneumoniae ATCC 700676
Type: cell-based, Streptococcus pneumoniae
Settings: S. pneumoniae ATCC 700676, erythromycin A resistant strain; average where multiple assays
Reported MIC is given for each of the following compounds.
State the answer as a number, implicitly in µg/mL.

Would you please look over these solved cases?
Compound | System tested | MIC (µg/mL)
COC1(C)CC(C)C(=O)C(C)C2NC(=O)OC2(C)C(CCNC(=O)Oc2ccc3ccccc3c2)OC(=O)C(C)C(=O)C(C)C1OC1OC(C)CC(N(C)C)C1O (stereo not drawn) | S. pneumoniae ATCC 700676 | 0.025
COC1(C)CC(C)C(=O)C(C)C2NC(=O)OC2(C)C(CCNC(=O)Oc2cccc(-c3ccncc3)c2)OC(=O)C(C)C(=O)C(C)C1OC1OC(C)CC(N(C)C)C1O (stereo not drawn) | S. pneumoniae ATCC 700676 | 0.025
COC1(C)CC(C)C(=O)C(C)C2NC(=O)OC2(C)C(CCNC(=O)OCC2c3ccccc3-c3ccccc32)OC(=O)C(C)C(=O)C(C)C1OC1OC(C)CC(N(C)C)C1O (stereo not drawn) | S. pneumoniae ATCC 700676 | 0.025
COC1(C)CC(C)C(=O)C(C)C2NC(=O)OC2(C)C(CCNC(=O)Nc2cccc3ccccc23)OC(=O)C(C)C(=O)C(C)C1OC1OC(C)CC(N(C)C)C1O (stereo not drawn) | S. pneumoniae ATCC 700676 | 0.049
CC[C@H]1OC(=O)[C@H](C)[C@@H](O[C@H]2C[C@@](C)(OC)[C@@H](O)[C@H](C)O2)[C@H](C)[C@@H](O[C@@H]2O[C@H](C)C[C@H](N(C)C)[C@H]2O)[C@](C)(O)C[C@@H](C)C(=O)[C@H](C)[C@@H](O)[C@]1(C)O [Ery A, erythromycin A, reference compound] | S. pneumoniae ATCC 700676 | 6.25

Look up MIC: COC1(C)CC(C)C(=O)C(C)C2NC(=O)OC2(C)C(CCN(C)CCc2cccc(-c3ccco3)c2)OC(=O)C(C)C(=O)C(C)C1OC1OC(C)CC(N(C)C)C1O (stereo not drawn)
0.049

Quick one: MIC of COC1(C)CC(C)C(=O)C(C)C2NC(=O)OC2(C)C(CCNS(=O)(=O)c2ccc3ccccc3c2)OC(=O)C(C)C(=O)C(C)C1OC1OC(C)CC(N(C)C)C1O (stereo not drawn) ?
0.01

Please give the measured MIC for this compound: COC1(C)CC(C)C(=O)C(C)C2NC(=O)OC2(C)C(CCNC(=O)OCC(C)C)OC(=O)C(C)C(=O)C(C)C1OC1OC(C)CC(N(C)C)C1O (stereo not drawn)
0.025

Given the entry COC1(C)CC(C)C(=O)C(C)C2NC(=O)OC2(C)C(CCNS(=O)(=O)c2cccc3cccnc23)OC(=O)C(C)C(=O)C(C)C1OC1OC(C)CC(N(C)C)C1O (stereo not drawn) , report its measured MIC.
0.01

====

The reader will find reported MIC values listed item by item below.
System: S. pneumoniae ATCC 700905
Assay: microdilution assay MIC, S. pneumoniae ATCC 700905
Assay type: cell-based, Streptococcus pneumoniae
Settings: S. pneumoniae ATCC 700905, erythromycin A resistant strain; average where multiple assays
Record the value in µg/mL, omitting the unit from your answer.

Compound | Uom | MIC
COC1(C)CC(C)C(=O)C(C)C2NC(=O)OC2(C)C(CCNC(=O)Oc2ccc(F)cc2)OC(=O)C(C)C(=O)C(C)C1OC1OC(C)CC(N(C)C)C1O (stereo not shown) | µg/mL | 0.025
COC(=O)NCCC1OC(=O)C(C)C(=O)C(C)C(OC2OC(C)CC(N(C)C)C2O)C(C)(OC)CC(C)C(=O)C(C)C2NC(=O)OC12C (stereo not shown) | µg/mL | 0.98
CC[C@H]1OC(=O)[C@H](C)[C@@H](O[C@H]2C[C@@](C)(OC)[C@@H](O)[C@H](C)O2)[C@H](C)[C@@H](O[C@@H]2O[C@H](C)C[C@H](N(C)C)[C@H]2O)[C@](C)(O)C[C@@H](C)C(=O)[C@H](C)[C@@H](O)[C@]1(C)O [Ery A, erythromycin A, reference compound] | µg/mL | 3.12

Value wanted: MIC (S. pneumoniae ATCC 700905) of entry COC1(C)CC(C)C(=O)C(C)C2NC(=O)OC2(C)C(CCNC(=O)Oc2cccc(-c3ccccc3)c2)OC(=O)C(C)C(=O)C(C)C1OC1OC(C)CC(N(C)C)C1O (stereo not shown)
0.025
